Activity values for the molecules below.
# System: RAW264.7
# protocol_details: Cytotoxicity against mouse RAW264.7 cells assessed as reduction in cell viability at 30 uM incubated for 24 hrs by MTT assay relative to control
# Type: toxicity, cell-based
# measurement_parameters: raw264.7, 24 h
Write the answer as a number in %, unit excluded.

1. CC(=O)O[C@H]1C[C@@]2(C)[C@@H](C[C@@H](O)[C@H]3[C@@]4(C)CC[C@@H](O)[C@@H](C)[C@@H]4CC[C@@]32C)/C1=C(\CCC=C(C)C)C(=O)OCc1cn(Cc2ccc(F)cc2)nn1; 103.74
2. CC(=O)O[C@H]1C[C@@]2(C)[C@@H](C[C@@H](O)[C@H]3[C@@]4(C)CC[C@@H](O)[C@@H](C)[C@@H]4CC[C@@]32C)/C1=C(\CCC=C(C)C)C(=O)OCc1cn(-c2ccc(Cl)cc2)nn1; 101.39
3. CC(=O)O[C@H]1C[C@@]2(C)[C@@H](C[C@@H](O)[C@H]3[C@@]4(C)CC[C@@H](O)[C@@H](C)[C@@H]4CC[C@@]32C)/C1=C(\CCC=C(C)C)C(=O)OCc1nnc(-c2ccccc2)o1; 102.94
4. CC(=O)O[C@H]1C[C@@]2(C)[C@@H](C[C@@H](O)[C@H]3[C@@]4(C)CC[C@@H](O)[C@@H](C)[C@@H]4CC[C@@]32C)/C1=C(\CCC=C(C)C)C(=O)OCc1cn(-c2ccccc2)nn1; 102.79
5. COc1ccc(Cn2cc(COC(=O)/C(CCC=C(C)C)=C3\[C@@H](OC(C)=O)C[C@@]4(C)[C@H]3C[C@@H](O)[C@H]3[C@@]5(C)CC[C@@H](O)[C@@H](C)[C@@H]5CC[C@@]34C)nn2)cc1; 100.31

Activity value, target or system RAW264.7, for `COc1ccc(-n2cc(COC(=O)/C(CCC=C(C)C)=C3\[C@@H](OC(C)=O)C[C@@]4(C)[C@H]3C[C@@H](O)[C@H]3[C@@]5(C)CC[C@@H](O)[C@@H](C)[C@@H]5CC[C@@]34C)nn2)cc1` : 99.38

# Activity measured on RAW264.7 for item `COc1ccc(-c2cc(COC(=O)/C(CCC=C(C)C)=C3\[C@@H](OC(C)=O)C[C@@]4(C)[C@H]3C[C@@H](O)[C@H]3[C@@]5(C)CC[C@@H](O)[C@@H](C)[C@@H]5CC[C@@]34C)on2)cc1` = 97.68

Item `CC(=O)O[C@H]1C[C@@]2(C)[C@@H](C[C@@H](O)[C@H]3[C@@]4(C)CC[C@@H](O)[C@@H](C)[C@@H]4CC[C@@]32C)/C1=C(\CCC=C(C)C)C(=O)OCc1cn(-c2ccc(F)cc2)nn1` was tested on RAW264.7; the reported Activity is 100.85

Log: RAW264.7, molecule `CC(=O)O[C@H]1C[C@@]2(C)[C@@H](C[C@@H](O)[C@H]3[C@@]4(C)CC[C@@H](O)[C@@H](C)[C@@H]4CC[C@@]32C)/C1=C(\CCC=C(C)C)C(=O)OCc1cn(Cc2ccc([N+](=O)[O-])cc2)nn1` , Activity = 101.85

====

# protocol_details: Cytotoxicity against mouse RAW264.7 cells assessed as inhibition of cell growth incubated for 24 hrs by MTT assay
# Format: toxicity, cell-based
Reported IC50 at 24 h by item:
Output spec: scalar in µM, unitless text.

1. COc1ccc(Cn2cc(COC(=O)/C(CCC=C(C)C)=C3\[C@@H](OC(C)=O)C[C@@]4(C)[C@H]3C[C@@H](O)[C@H]3[C@@]5(C)CC[C@@H](O)[C@@H](C)[C@@H]5CC[C@@]34C)nn2)cc1; 110

Continue with the next compound.
So, `CC(=O)O[C@H]1C[C@@]2(C)[C@@H](C[C@@H](O)[C@H]3[C@@]4(C)CC[C@@H](O)[C@@H](C)[C@@H]4CC[C@@]32C)/C1=C(\CCC=C(C)C)C(=O)OCc1cn(Cc2ccc(Cl)c(Cl)c2)nn1` ? Its IC50 at 24 h was 49.8

====

# protocol_details: Cytotoxicity against mouse RAW264.7 cells assessed as inhibition of cell growth incubated for 24 hrs by MTT assay
# Format: toxicity, cell-based
property_measured: IC50 at 24 h
Give the value; after it, write the unit.

The examples below pair each entry with its known result.
1) CC(=O)O[C@H]1C[C@@]2(C)[C@@H](C[C@@H](O)[C@H]3[C@@]4(C)CC[C@@H](O)[C@@H](C)[C@@H]4CC[C@@]32C)/C1=C(\CCC=C(C)C)C(=O)OCc1cc(-c2ccc(Br)cc2)no1; 40.9 µM
2) CC(=O)O[C@H]1C[C@@]2(C)[C@@H](C[C@@H](O)[C@H]3[C@@]4(C)CC[C@@H](O)[C@@H](C)[C@@H]4CC[C@@]32C)/C1=C(\CCC=C(C)C)C(=O)OCc1cn(-c2ccc([N+](=O)[O-])cc2)nn1; 120 µM
3) CC(=O)O[C@H]1C[C@@]2(C)[C@@H](C[C@@H](O)[C@H]3[C@@]4(C)CC[C@@H](O)[C@@H](C)[C@@H]4CC[C@@]32C)/C1=C(\CCC=C(C)C)C(=O)OCc1cn(Cc2ccc(C)cc2)nn1; 121 µM
4) CC(=O)O[C@H]1C[C@@]2(C)[C@@H](C[C@@H](O)[C@H]3[C@@]4(C)CC[C@@H](O)[C@@H](C)[C@@H]4CC[C@@]32C)/C1=C(\CCC=C(C)C)C(=O)OCc1cn(-c2ccc(C)cc2)nn1; 89.6 µM

Lab note: next compound to report on.
Summary for this compound, `CC(=O)O[C@H]1C[C@@]2(C)[C@@H](C[C@@H](O)[C@H]3[C@@]4(C)CC[C@@H](O)[C@@H](C)[C@@H]4CC[C@@]32C)/C1=C(\CCC=C(C)C)C(=O)OCc1cn(Cc2ccccc2)nn1` : IC50 at 24 h is 88.3 µM

====

Each item that follows carries a reported IC50 at 24 h.
# protocol_details: Cytotoxicity against mouse RAW264.7 cells assessed as inhibition of cell growth incubated for 24 hrs by MTT assay
# Assay type: toxicity, cell-based

Please review the entries below; each comes with its answer.
1. CC(=O)O[C@H]1C[C@@]2(C)[C@@H](C[C@@H](O)[C@H]3[C@@]4(C)CC[C@@H](O)[C@@H](C)[C@@H]4CC[C@@]32C)/C1=C(\CCC=C(C)C)C(=O)OCc1cc(-c2ccc(Cl)cc2)no1; 42 µM
2. CC(=O)O[C@H]1C[C@@]2(C)[C@@H](C[C@@H](O)[C@H]3[C@@]4(C)CC[C@@H](O)[C@@H](C)[C@@H]4CC[C@@]32C)/C1=C(\CCC=C(C)C)C(=O)OCc1nnc(-c2ccc(F)cc2)o1; 47.9 µM
3. COc1ccc(-n2cc(COC(=O)/C(CCC=C(C)C)=C3\[C@@H](OC(C)=O)C[C@@]4(C)[C@H]3C[C@@H](O)[C@H]3[C@@]5(C)CC[C@@H](O)[C@@H](C)[C@@H]5CC[C@@]34C)nn2)cc1OC; 76.6 µM

Per the records, this molecule ( `CC(=O)O[C@H]1C[C@@]2(C)[C@@H](C[C@@H](O)[C@H]3[C@@]4(C)CC[C@@H](O)[C@@H](C)[C@@H]4CC[C@@]32C)/C1=C(\CCC=C(C)C)C(=O)OCc1cc(-c2ccc(Cl)c(Cl)c2)no1` ) has IC50 at 24 h equal to 44.6 µM

Entry `CC(=O)O[C@H]1C[C@@]2(C)[C@@H](C[C@@H](O)[C@H]3[C@@]4(C)CC[C@@H](O)[C@@H](C)[C@@H]4CC[C@@]32C)/C1=C(\CCC=C(C)C)C(=O)OCc1cn(-c2ccccc2)nn1` — recorded IC50 at 24 h = 94.3 µM

====

# System: RAW264.7
# protocol_details: Cytotoxicity against mouse RAW264.7 cells assessed as reduction in cell viability at 30 uM incubated for 24 hrs by MTT assay relative to control
# Assay type: toxicity, cell-based
# measurement_parameters: raw264.7, 24 h
property_measured: Activity (%)
Give the value, in units of %, as a plain number.

A selection of reference data follows.
1) CC(=O)O[C@H]1C[C@@]2(C)[C@@H](C[C@@H](O)[C@H]3[C@@]4(C)CC[C@@H](O)[C@@H](C)[C@@H]4CC[C@@]32C)/C1=C(\CCC=C(C)C)C(=O)OCc1cc(-c2ccc(Cl)c(Cl)c2)no1; 94.05
2) CC(=O)O[C@H]1C[C@@]2(C)[C@@H](C[C@@H](O)[C@H]3[C@@]4(C)CC[C@@H](O)[C@@H](C)[C@@H]4CC[C@@]32C)/C1=C(\CCC=C(C)C)C(=O)OCc1cn(Cc2ccc(Cl)c(Cl)c2)nn1; 100.62

Below: the item to evaluate.
So, `CC(=O)O[C@H]1C[C@@]2(C)[C@@H](C[C@@H](O)[C@H]3[C@@]4(C)CC[C@@H](O)[C@@H](C)[C@@H]4CC[C@@]32C)/C1=C(\CCC=C(C)C)C(=O)OCc1cc(-c2ccc(Cl)cc2)no1` ? Its Activity was 103.94
